// reported MIC per item
- System: Staphylococcus aureus
- experimental-protocol: Antimicrobial activity against methicillin-resistant Staphylococcus aureus ATCC 33591 assessed as inhibition of visible bacterial growth incubated for 18 hrs by broth-dilution method
- Type: functional
Numbered stars: 1 amine (or outer) side, 2 acyl side, 3 side chain; on linkers, the order of the positions; unused ones are H or OH. Square brackets hold non-standard residues; d marks the D form. Peptide text beside a SMILES is read from it. * marks the point of attachment. X6 = CC(C)C[C@@H](CN(CC(N)=O)S(=O)(=O)c1cc(C(F)(F)F)cc(C(F)(F)F)c1)N*; X5 = NC(=O)CN(C[C@H](Cc1ccccc1)N*)S(=O)(=O)c1ccc(C(F)(F)F)cc1; X4 = N[C@@H](Cc1ccccc1)CN(CC(=O)[*:2])[*:1]; X7 = O=S(=O)(c1cc(C(F)(F)F)cc(C(F)(F)F)c1)*
Form entry: enter the amount, then its unit.

Known results for molecules:
>  <molecule>
CC(C)C[C@@H](CN(CC(N)=O)S(=O)(=O)c1cc(C(F)(F)F)cc(C(F)(F)F)c1)NC(=O)[C@H](CCCCN)NC(=O)[C@H](CCCCN)NC(=O)[C@H](CC(C)C)NC(=O)[C@H](CC(C)C)NC(=O)[C@H](CCCCN)NC(=O)[C@H](CC(C)C)NC(=O)[C@@H](N)Cc1ccccc1 (H-FLKLLKK-X6)

>  <data-value>
4 µg/mL

$$$$
>  <molecule>
CC(C)C[C@H](NC(=O)[C@H](CC(C)C)NC(=O)[C@H](CCCCN)NC(=O)[C@H](CCCCN)NC(=O)[C@H](CC(C)C)NC(=O)[C@H](CC(C)C)NC(=O)[C@H](CCCCN)NC(=O)CN(C[C@@H](N)Cc1ccccc1)S(=O)(=O)c1cc(C(F)(F)F)cc(C(F)(F)F)c1)C(N)=O (X7-[X4]KLLKKLL-NH2)

>  <data-value>
8 µg/mL

$$$$
>  <molecule>
CC(C)C[C@H](NC(=O)[C@H](CC(C)C)NC(=O)[C@H](CCCCN)NC(=O)[C@H](CC(C)C)NC(=O)[C@@H](N)Cc1ccccc1)C(=O)N[C@@H](CCCCN)C(=O)N[C@@H](CCCCN)C(=O)N[C@@H](Cc1ccccc1)CN(CC(N)=O)S(=O)(=O)c1ccc(C(F)(F)F)cc1 (H-FLKLLKK-X5)

>  <data-value>
8 µg/mL

$$$$

Recorded MIC (molecule CC(C)C[C@H](NC(=O)[C@H](CC(C)C)NC(=O)[C@H](CCCCN)NC(=O)[C@H](CCCCN)NC(=O)[C@H](CC(C)C)NC(=O)[C@H](C)NC(=O)[C@H](CCCCN)NC(=O)CN(C[C@@H](N)Cc1ccccc1)S(=O)(=O)c1cc(C(F)(F)F)cc(C(F)(F)F)c1)C(N)=O (X7-[X4]KALKKLL-NH2) ): 8 µg/mL

---

- System: Pseudomonas aeruginosa
- experimental-protocol: Antimicrobial activity against multidrug-resistant Pseudomonas aeruginosa 156 assessed as inhibition of visible bacterial growth incubated for 18 hrs by broth-dilution method
- Type: functional
Numbered stars: 1 amine (or outer) side, 2 acyl side, 3 side chain; on linkers, the order of the positions; unused ones are H or OH. Square brackets hold non-standard residues; d marks the D form. Peptide text beside a SMILES is read from it. * marks the point of attachment. X2 = CC(C)C[C@H](N)CN(CC(=O)[*:2])[*:1]; X1 = O=S(=O)(c1ccc(C(F)(F)F)cc1)*
metric: MIC (µg/mL)
Entry rule: numbers only, all in µg/mL.

>  <compound>
CC(C)(O/N=C(\C(=O)N[C@@H]1C(=O)N2C(C(=O)[O-])=C(C[n+]3ccccc3)CS[C@H]12)c1csc(N)n1)C(=O)O

>  <target-under-test>
Pseudomonas aeruginosa

>  <metric>
MIC

>  <unit-name>
µg/mL

>  <data-value>
256

$$$$

Turning now to a further record.
Just so you know, measured MIC for CC(C)C[C@H](N)CN(CC(=O)N[C@@H](CCCCN)C(=O)N[C@@H](CC(C)C)C(=O)N[C@@H](CC(C)C)C(=O)N[C@@H](CCCCN)C(=O)N[C@@H](CCCCN)C(=O)N[C@@H](CC(C)C)C(=O)N[C@@H](CC(C)C)C(N)=O)S(=O)(=O)c1ccc(C(F)(F)F)cc1 (X1-[X2]KLLKKLL-NH2) came out at 4

---

- Test system: Staphylococcus aureus
- experimental-protocol: Antimicrobial activity against methicillin-resistant Staphylococcus aureus ATCC 33591 assessed as inhibition of visible bacterial growth incubated for 18 hrs by broth-dilution method
- Assay type: functional
Numbered stars: 1 amine (or outer) side, 2 acyl side, 3 side chain; on linkers, the order of the positions; unused ones are H or OH. Square brackets hold non-standard residues; d marks the D form. Peptide text beside a SMILES is read from it. * marks the point of attachment. X3 = CC(C)C[C@@H](CN(CC(N)=O)S(=O)(=O)c1ccc(C(F)(F)F)cc1)N*; X4 = N[C@@H](Cc1ccccc1)CN(CC(=O)[*:2])[*:1]; X2 = CC(C)C[C@H](N)CN(CC(=O)[*:2])[*:1]; X1 = O=S(=O)(c1ccc(C(F)(F)F)cc1)*
MIC reference
# output: numeric value plus its unit

Example entries begin here.
>  <molecule>
CC(C)(O/N=C(\C(=O)N[C@@H]1C(=O)N2C(C(=O)[O-])=C(C[n+]3ccccc3)CS[C@H]12)c1csc(N)n1)C(=O)O [CEFTAZIDIME]

>  <MIC>
258 µg/mL

$$$$
>  <molecule>
CC(C)C[C@@H](CN(CC(N)=O)S(=O)(=O)c1ccc(C(F)(F)F)cc1)NC(=O)[C@H](CCCCN)NC(=O)[C@H](CCCCN)NC(=O)[C@H](CC(C)C)NC(=O)[C@H](CC(C)C)NC(=O)[C@H](CCCCN)NC(=O)[C@H](CC(C)C)NC(=O)[C@@H](N)Cc1ccccc1 (H-FLKLLKK-X3)

>  <MIC>
4 µg/mL

$$$$
>  <molecule>
CC(C)C[C@H](N)CN(CC(=O)N[C@@H](CCCCN)C(=O)N[C@@H](CC(C)C)C(=O)N[C@@H](CC(C)C)C(=O)N[C@@H](CCCCN)C(=O)N[C@@H](CCCCN)C(=O)N[C@@H](CC(C)C)C(=O)N[C@@H](CC(C)C)C(N)=O)S(=O)(=O)c1ccc(C(F)(F)F)cc1 (X1-[X2]KLLKKLL-NH2)

>  <MIC>
4 µg/mL

$$$$

Item: CC(C)C[C@H](NC(=O)[C@H](CC(C)C)NC(=O)[C@H](CCCCN)NC(=O)[C@H](CCCCN)NC(=O)[C@H](CC(C)C)NC(=O)[C@H](C)NC(=O)[C@H](CCCCN)NC(=O)CN(C[C@@H](N)Cc1ccccc1)S(=O)(=O)c1ccc(C(F)(F)F)cc1)C(N)=O (X1-[X4]KALKKLL-NH2) | MIC: 8 µg/mL

---

# MIC values compiled below
- System: Pseudomonas aeruginosa
- experimental-protocol: Antimicrobial activity against multidrug-resistant Pseudomonas aeruginosa 124 assessed as inhibition of visible bacterial growth incubated for 18 hrs by broth-dilution method
- Format: functional
Peptide text beside a SMILES is read from it. * marks the point of attachment. X3 = CC(C)C[C@@H](CN(CC(N)=O)S(=O)(=O)c1ccc(C(F)(F)F)cc1)N*
Reply with just the number (in µg/mL).

# example entries with known answers
>  <compound>
CC(C)C[C@@H](CN(CC(N)=O)S(=O)(=O)c1ccc(C(F)(F)F)cc1)NC(=O)[C@H](CCCCN)NC(=O)[C@H](CCCCN)NC(=O)[C@H](CC(C)C)NC(=O)[C@H](CC(C)C)NC(=O)[C@H](CCCCN)NC(=O)[C@H](CC(C)C)NC(=O)[C@@H](N)Cc1ccccc1 (H-FLKLLKK-X3)

>  <MIC [µg/mL]>
8

$$$$
>  <compound>
C[C@H]1[C@H](NC(=O)/C(=N\OC(C)(C)C(=O)O)c2csc(N)n2)C(=O)N1S(=O)(=O)O

>  <MIC [µg/mL]>
4

$$$$

Bench note, Pseudomonas aeruginosa: C[C@@H](O)[C@H]1C(=O)N2C(C(=O)O)=C(SCCNC=N)C[C@H]12 [IMIPENEM ANHYDROUS] , MIC reads 4

---

Here the recorded MIC is given for each entry.
- Tested on: Pseudomonas aeruginosa
- experimental-protocol: Antimicrobial activity against multidrug-resistant Pseudomonas aeruginosa 073 assessed as inhibition of visible bacterial growth incubated for 18 hrs by broth-dilution method
- Format: functional
Numbered stars: 1 amine (or outer) side, 2 acyl side, 3 side chain; on linkers, the order of the positions; unused ones are H or OH. Square brackets hold non-standard residues; d marks the D form. Peptide text beside a SMILES is read from it. * marks the point of attachment. X3 = CC(C)C[C@@H](CN(CC(N)=O)S(=O)(=O)c1ccc(C(F)(F)F)cc1)N*; X4 = N[C@@H](Cc1ccccc1)CN(CC(=O)[*:2])[*:1]; X2 = CC(C)C[C@H](N)CN(CC(=O)[*:2])[*:1]; X1 = O=S(=O)(c1ccc(C(F)(F)F)cc1)*
Field: numeric (µg/mL). Do not append units.

>  <compound>
CC(C)(O/N=C(\C(=O)N[C@@H]1C(=O)N2C(C(=O)[O-])=C(C[n+]3ccccc3)CS[C@H]12)c1csc(N)n1)C(=O)O [CEFTAZIDIME]

>  <metric>
MIC

>  <unit-name>
µg/mL

>  <data-value>
1

$$$$

Reported MIC for CC(C)C[C@H](NC(=O)[C@H](CC(C)C)NC(=O)[C@H](CCCCN)NC(=O)[C@H](CCCCN)NC(=O)[C@H](CC(C)C)NC(=O)[C@H](C)NC(=O)[C@H](CCCCN)NC(=O)CN(C[C@@H](N)Cc1ccccc1)S(=O)(=O)c1ccc(C(F)(F)F)cc1)C(N)=O (X1-[X4]KALKKLL-NH2) was 8

// recorded MIC for CC(C)C[C@H](N)CN(CC(=O)N[C@@H](CCCCN)C(=O)N[C@@H](CC(C)C)C(=O)N[C@@H](CC(C)C)C(=O)N[C@@H](CCCCN)C(=O)N[C@@H](CCCCN)C(=O)N[C@@H](CC(C)C)C(=O)N[C@@H](CC(C)C)C(N)=O)S(=O)(=O)c1ccc(C(F)(F)F)cc1 (X1-[X2]KLLKKLL-NH2) : 8

Sample CC(C)C[C@@H](CN(CC(N)=O)S(=O)(=O)c1ccc(C(F)(F)F)cc1)NC(=O)[C@H](CCCCN)NC(=O)[C@H](CCCCN)NC(=O)[C@H](CC(C)C)NC(=O)[C@H](CC(C)C)NC(=O)[C@H](CCCCN)NC(=O)[C@H](CC(C)C)NC(=O)[C@@H](N)Cc1ccccc1 (H-FLKLLKK-X3) ; MIC observed: 16

For this compound ( C[C@@H](O)[C@H]1C(=O)N2C(C(=O)O)=C(SCCNC=N)C[C@H]12 [IMIPENEM ANHYDROUS] ), measured MIC is 4
